molecular target: TGF-β R1 ALK5 (Homo sapiens)
Measurement Type: pIC50
The scale used: pIC50 is minus the common logarithm of the concentration in molar units.

input: Find the measured pIC50: item CCn1ncc2nccc(Nc3ccnc(-c4nc(C)ccc4F)c3)c21 [Example 127] , target or system TGF-β R1 ALK5 (Homo sapiens).
output: 8.10

input: Look up pIC50 with TGF-β R1 ALK5 (Homo sapiens) for this molecule: CNC(=O)Cn1ncc2nccc(Nc3cc(-c4cc(F)ccc4F)ncc3C)c21 [Example 159]
output: 7.40

input: Checklist item: pIC50 tested on TGF-β R1 ALK5 (Homo sapiens), entry Cc1cnc(-c2cc(Cl)ccc2F)nc1Nc1ccnc2cnn(CC(N)=O)c12 [Example 3] , value?
output: 8.20

input: Look up pIC50 with TGF-β R1 ALK5 (Homo sapiens) for this molecule: CNC(=O)Cn1ncc2nccc(Nc3cc(-c4nc(C)ccc4F)ncc3C)c21 [Example 145]
output: 7.80

Consider the additional molecule presented here.
input: Which pIC50 is reported with TGF-β R1 ALK5 (Homo sapiens) for this entry: Cc1ccc(F)c(-c2cc(Nc3ccnc4cn(CC(C)(C)O)nc34)c(C)cn2)n1 [Example 8] ?
output: 6.60

====

Biological target: TGF-β R1 ALK5 (Homo sapiens)
Sequence (P36897 34-503): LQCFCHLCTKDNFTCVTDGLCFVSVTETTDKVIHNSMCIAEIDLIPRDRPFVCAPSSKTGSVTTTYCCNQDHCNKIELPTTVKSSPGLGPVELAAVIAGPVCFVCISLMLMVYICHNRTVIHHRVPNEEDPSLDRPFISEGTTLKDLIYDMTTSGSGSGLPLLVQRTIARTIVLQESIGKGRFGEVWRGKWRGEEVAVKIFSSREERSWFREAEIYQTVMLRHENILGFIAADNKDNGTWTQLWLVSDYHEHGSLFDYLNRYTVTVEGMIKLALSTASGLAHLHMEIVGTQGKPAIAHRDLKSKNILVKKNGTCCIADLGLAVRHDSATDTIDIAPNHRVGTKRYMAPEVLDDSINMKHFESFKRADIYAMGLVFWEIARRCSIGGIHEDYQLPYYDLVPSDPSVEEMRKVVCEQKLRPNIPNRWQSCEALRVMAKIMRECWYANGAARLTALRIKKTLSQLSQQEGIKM
pIC50: −log10 of the molar value.
Each record gets a class by pIC50: low end = under 7, middle = from 7 up to 8, high end = 8 and over

input: Each molecule maps to one class by pIC50. Which class for Fc1ccc(Cl)cc1-c1cc(Nc2ccnc3cn(CC4CCOCC4)nc23)ccn1 ?
output: low end

input: Which pIC50 category applies to Cc1ccc(F)c(-c2cc(Nc3ccnc4cn(C)nc34)ccn2)n1 here?
output: middle

input: Which bin should I file Cc1ccc(F)c(-c2cc(Nc3ccnc4cnn(C)c34)c(C)cn2)n1 under?
output: high end

# ---- query molecule ----
input: Assign a category based on measured pIC50 for CNC(=O)n1ncc2nccc(Nc3ccnc(-c4cc(C)ccc4F)c3)c21 and give only the class name.
output: middle

====

molecular target: cellular TGF-β R1 ALK5 (Homo sapiens); construct: host or cells: CellSensor SBE-bla HEK 293T; experiment: Cellular inhibition of ALK5 (CellSensor SBE-bla HEK 293T beta-lactamase reporter); type: cell-based; settings: cellular inhibition of ALK5, SBE-bla HEK 293T cells, TGFb-1 stimulated 5 hours; average where measured in multiple experiments
Measurement Type: pIC50
Expect pIC50 as a plain number equal to -log10 of the molar concentration.

input: # returns recorded pIC50 (system: cellular TGF-β R1 ALK5 (Homo sapiens)) for CCCn1cc2nccc(Nc3ccnc(-c4cc(Cl)ccc4F)c3)c2n1
output: 6.40

input: Which pIC50 is reported with cellular TGF-β R1 ALK5 (Homo sapiens) for this entry: OC[C@@H](O)Cn1cc2nccc(Nc3ccnc(-c4cc(Cl)ccc4F)c3)c2n1 ?
output: 6.40

input: Recall the recorded pIC50 for CCn1ncc2ncc(F)c(Nc3cc(-c4nc(C)ccc4F)ncc3C)c21 with cellular TGF-β R1 ALK5 (Homo sapiens) and state it.
output: 6.90

input: Lab note: need pIC50 with cellular TGF-β R1 ALK5 (Homo sapiens) for entry CNC(=O)Cn1ncc2ncc(F)c(Nc3cc(-c4nc(C)ccc4F)ncc3C)c21 , please look it up.
output: 6.00

input: Notebook: pull reported pIC50 for cellular TGF-β R1 ALK5 (Homo sapiens), entry Cc1ccc(F)c(-c2cc(Nc3ccnc4cnn(C(C)C)c34)c(C)cn2)n1
output: 6.70

input: Give recorded pIC50 with cellular TGF-β R1 ALK5 (Homo sapiens) for the following molecule: CCNC(=O)n1ncc2nccc(Nc3nc(-c4cc(F)ccc4F)nc(C)c3C)c21
output: 6.30

Further cases:
input: Observed pIC50 on cellular TGF-β R1 ALK5 (Homo sapiens) for Cc1ccc(F)c(-c2cc(Nc3ccnc4cnn(CC(=O)NC5CC5)c34)c(C)cn2)n1 , please.
output: 6.90

input: Under cellular TGF-β R1 ALK5 (Homo sapiens): pIC50 value of CNC(=O)Cn1cc2ncc(F)c(Nc3cc(-c4nc(C)ccc4F)ncc3C)c2n1 ?
output: 6.70

input: Notebook: pull reported pIC50 for cellular TGF-β R1 ALK5 (Homo sapiens), entry Cc1ccc(F)c(-c2cc(Nc3ccnc4cnn(C)c34)ccn2)n1
output: 6.90

====

Target: cellular TGF-β R1 ALK5 (Homo sapiens, UniProt P36897)
Construct: host or cells: CellSensor SBE-bla HEK 293T
Sequence (P36897 34-503): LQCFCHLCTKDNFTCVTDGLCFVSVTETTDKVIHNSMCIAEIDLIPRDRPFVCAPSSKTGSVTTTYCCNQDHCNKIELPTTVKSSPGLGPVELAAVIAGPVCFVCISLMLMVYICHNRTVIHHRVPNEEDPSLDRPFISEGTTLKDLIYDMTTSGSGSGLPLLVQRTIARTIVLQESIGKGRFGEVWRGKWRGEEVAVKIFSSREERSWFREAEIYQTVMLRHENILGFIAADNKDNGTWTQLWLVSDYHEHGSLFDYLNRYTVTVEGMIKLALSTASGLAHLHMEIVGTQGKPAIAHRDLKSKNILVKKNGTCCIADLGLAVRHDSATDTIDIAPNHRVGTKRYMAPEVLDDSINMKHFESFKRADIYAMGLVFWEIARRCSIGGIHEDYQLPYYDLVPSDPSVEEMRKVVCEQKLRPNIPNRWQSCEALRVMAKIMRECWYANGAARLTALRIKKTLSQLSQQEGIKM
Test: Cellular inhibition of ALK5 (CellSensor SBE-bla HEK 293T beta-lactamase reporter)
Format: cell-based
Settings: cellular inhibition of ALK5, SBE-bla HEK 293T cells, TGFb-1 stimulated 5 hours; average where measured in multiple experiments
pIC50: −log10 of the molar value.
Everything with pIC50 lower than 7 is 0; everything else, including exactly 7, is 1.

input: Item Cc1ccc(F)c(-c2cc(Nc3ccnc4cnn(CC(F)F)c34)ccn2)n1 with pIC50 of 7 or above?
output: 1

input: // inclusive: pIC50 at least 7? input: Cc1cnc(-c2cc(Cl)ccc2F)nc1Nc1ccnc2cn[nH]c12
output: 1

input: Check if pIC50 >= 7 (inclusive). Item: CCNC(=O)Cn1cc2nccc(Nc3cc(-c4nc(C)ccc4F)ncc3C)c2n1
output: 0

// next entry
input: // inclusive: pIC50 at least 7? input: Fc1ccc(Cl)cc1-c1cc(Nc2ccnc3cn(CC4CC4)nc23)ccn1
output: 0

====

biological target: cellular TGF-β R1 ALK5 (Homo sapiens); test: Cellular inhibition of ALK5 (CellSensor SBE-bla HEK 293T beta-lactamase reporter); conditions: cellular inhibition of ALK5, SBE-bla HEK 293T cells, TGFb-1 stimulated 5 hours; average where measured in multiple experiments
pIC50 for assorted compounds
Schema: pIC50 number; meaning minus log10 of the concentration expressed in molar units.

input: Form field: pIC50 recorded for Cc1ccc(F)c(-c2cc(Nc3ccnc4cnn(CC(C)(C)O)c34)ccn2)n1 [Example 70] with cellular TGF-β R1 ALK5 (Homo sapiens) (enter value)
output: 7.50

---
input: Recall the recorded pIC50 for Cc1ccc(F)c(-c2cc(Nc3ccnc4cnn(C[C@@H](C)O)c34)ccn2)n1 [Example 98] with cellular TGF-β R1 ALK5 (Homo sapiens) and state it.
output: 7.60

====

Molecular target: TGF-β R1 ALK5 (Homo sapiens)
Sequence (P36897 34-503): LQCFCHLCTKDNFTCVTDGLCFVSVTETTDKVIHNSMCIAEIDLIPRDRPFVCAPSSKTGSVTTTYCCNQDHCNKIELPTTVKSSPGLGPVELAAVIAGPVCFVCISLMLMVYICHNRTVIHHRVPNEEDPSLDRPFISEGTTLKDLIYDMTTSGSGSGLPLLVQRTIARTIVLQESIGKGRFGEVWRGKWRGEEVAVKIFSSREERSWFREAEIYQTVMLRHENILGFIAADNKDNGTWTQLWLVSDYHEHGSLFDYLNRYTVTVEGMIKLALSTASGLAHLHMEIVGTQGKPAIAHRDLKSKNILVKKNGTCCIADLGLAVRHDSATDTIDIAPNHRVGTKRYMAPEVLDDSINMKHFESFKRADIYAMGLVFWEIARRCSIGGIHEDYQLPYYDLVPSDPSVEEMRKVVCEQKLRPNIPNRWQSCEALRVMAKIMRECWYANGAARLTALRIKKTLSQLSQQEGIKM
pIC50: −log10 of the molar value.
Quick rule for you: pIC50 at 7 or higher means condition met, lower means condition not met.

Previously resolved entries follow.
input: Is the recorded value of pIC50 equal to or greater than 7 for this compound? Cc1ccc(F)c(-c2cc(Nc3ccnc4cn(CCC(C)(C)O)nc34)c(C)cn2)n1 [Example 120]
output: condition met

input: pIC50 >= 7 for O=C(Cn1ncc2nccc(Nc3ccnc(-c4cc(Cl)ccc4F)c3)c21)N1CCOCC1 [Example 42] ?
output: condition not met

input: Hi team, for Cc1ccc(F)c(-c2cc(Nc3ccnc4cnn(C[C@@H](C)O)c34)c(C)cn2)n1 [Example 151] , is the recorded pIC50 at or above 7?
output: condition met

input: Is reported pIC50 greater than or equal to 7 here: CCCn1ncc2nccc(Nc3ccnc(-c4cc(Cl)ccc4F)c3)c21 [Example 18]
output: condition met

input: Check this compound for pIC50 at or above 7: CCNC(=O)N1CCC(Cn2cc3nccc(Nc4ccnc(-c5cc(Cl)ccc5F)c4)c3n2)CC1 [Example 28]
output: condition not met

Continuing:
input: Given the entry O=C1NCCN1CCn1ncc2nccc(Nc3ccnc(-c4cc(Cl)ccc4F)c3)c21 [Example 41] , answer whether its pIC50 meets or surpasses 7.
output: condition not met

input: Quick check, pIC50 >= 7? CCNC(=O)Cn1cc2nccc(Nc3cc(-c4nc(C)ccc4F)ncc3C)c2n1 [Example 154]
output: condition met

input: Given CNC(=O)Cn1cc2nccc(Nc3cc(-c4nc(C)ccc4F)ncc3C)c2n1 [Example 146] , state whether its pIC50 is at least 7.
output: condition met
